Test system: MS2 coat protein
ASSAY INFO: apparent KD of MS2 coat protein; designed switch direction (-1 OFF switch, 1 ON switch): -1; higher = weaker reporter binding
CONDITION SET: input ligand: microRNA oligo, concentration not stated
Threshold check on apparent KD of MS2 coat protein: at or above 40 nM gives yes (1), strictly below gives no (0).

Before answering, review these 3 worked examples.
>  <RESIDUES>
GGUCAGAUGGUAGGAUAUCCAUAUCGAGUGACCCUUUCAUAACAUGAGGAUCACCCAUGUCGGUGGGAGAAGGGCCGUACGGUG [salish99_ExNG02_R04_023] (Eterna round: R96, puzzle: Exclusion NG 2)

>  <ASSAY SYSTEM>
MS2 coat protein

>  <DISCRETE LABEL>
yes (1)

$$$$
>  <RESIDUES>
GGGUGACAGUUAGGAUAUCUUAGCACGCCGUAGAGAGAAGGGACAUGAGGAUCACCCAUGUUGUAGUGCCUCAAACACUGCUAG [Beintitian] (Eterna round: R96, puzzle: Exclusion NG 1)

>  <ASSAY SYSTEM>
MS2 coat protein

>  <DISCRETE LABEL>
no (0)

$$$$
>  <RESIDUES>
GGUCAGACGGUAGGAUAUCCAUAUCGAGUGACUCUUUCAUAACAUGAGGAUCACCCAUGUCGGUGGGAGAAGGGCCGUACGGCG [salish99_ExNG02_R04_005] (Eterna round: R96, puzzle: Exclusion NG 2)

>  <ASSAY SYSTEM>
MS2 coat protein

>  <DISCRETE LABEL>
no (0)

$$$$

Ask: Form field: apparent KD of MS2 coat protein at least 40 nM? Entry: UUUCGGCAUGUAGGAUAUGGAUCCGAUUAGGAUUUAGAAGGACAUGAGGAUCACCCAUGUGCAUUUAAUUGGUCAUUACCGUUU [EXclNG1-LROPPY08] (Eterna round: R96, puzzle: Exclusion NG 1)
Reply: yes (1)
